Reference for the values: the PolyMetriX glass transition set

EXPERIMENTAL READOUT: glass transition temperature (°C)
Give the quantity in °C, number only.

| MOLECULE | glass transition temperature, °C |
| --- | --- |
| *C(=O)c1ccc2c(c1)C(=O)N(c1ccc(-c3cc(C(C)(C)C)c(Oc4ccc(N5C(=O)c6ccc(*)cc6C5=O)cc4)c(C(C)(C)C)c3)cc1)C2=O (repeat unit) | 347.50 |

Report glass transition temperature for *CC(=O)OC(=O)COc1ccc(O*)cc1 (repeat unit) please. 70.00

Report glass transition temperature for *c1cc(C(=O)OC)cc(N2C(=O)CC(C3Cc4ccccc4C4C(=O)N(*)C(=O)C43)C2=O)c1 (repeat unit) please. 258.00

Report glass transition temperature for *Nc1cc(NC(=O)CCCCCCCCC(*)=O)cc(-c2nnc(-c3ccccn3)o2)c1 (repeat unit) please. 85.00

Report glass transition temperature for *SCC(=O)N/N=C/c1ccc(OCCCCCCCCCCOc2ccc(/C=N/NC(=O)CSc3nnc(*)s3)cc2)cc1 (repeat unit) please. 117.00

Report glass transition temperature for *CC(*)n1cncn1 (repeat unit) please. 165.00

Report glass transition temperature for *CCCCCCCCCCSSS* (repeat unit) please. -70.00

Report glass transition temperature for *CC(=O)Nc1ccc(Cc2ccc(NC(=O)c3ccc4c(c3)C(=O)N(*)C4=O)cc2)cc1 (repeat unit) please. 266.00

Report glass transition temperature for *Oc1ccc(NC(=O)/C=C/C(=O)NNC(=O)/C=C/C(=O)Nc2ccc(OC(=O)c3ccccc3C(=O)NNC(=O)c3ccccc3C(*)=O)cc2)cc1 (repeat unit) please. 240.00

Report glass transition temperature for *Oc1ccc(Oc2ccc(/C=N/CCCCCC/N=C/c3ccc(*)cc3)cc2)cc1 (repeat unit) please. 111.00

---

glass transition temperature reference
Give the quantity in °C, number only.

| COMPOUND | glass transition temperature, °C |
| --- | --- |
| *C(=O)Nc1ccc(Oc2cccc(NC(=O)c3ccc4c(c3)C(=O)N(c3ccc(Oc5ccc(C6(c7ccc(Oc8ccc(N9C(=O)c%10ccc(*)cc%10C9=O)cc8)cc7)NC(=O)c7ccccc76)cc5)cc3)C4=O)c2)cc1 (repeat unit) | 302.00 |
| *c1ccc(OCCN(CC)c2ccc(-c3ccc(C(=C(C#N)C#N)c4ccc(N(CC)CC)cc4)s3)cc2)c(-c2cc(-c3ccccc3)c3cc(Oc4ccc5nc(*)cc(-c6ccccc6)c5c4)ccc3n2)c1 (repeat unit) | 215.00 |

Now for a further compound.
Report glass transition temperature for *c1ccc(Sc2ccc(Oc3ccc(Sc4ccc(N5C(=O)c6ccc(Oc7ccc(C(C)(C)c8ccc(Oc9ccc%10c(c9)C(=O)N(*)C%10=O)cc8)cc7)cc6C5=O)cc4)cc3)cc2)cc1 (repeat unit) please. 199.00

---

glass transition temperature reference

Answered examples (6):
| MOLECULE | glass transition temperature |
| --- | --- |
| *CC(*)c1cccc(Cl)c1 (repeat unit) | 90.00 °C |
| *CCCCCCCCCCCCCCCCOC(=O)NCCCCCCCCCCNC(=O)O* (repeat unit) | 34.00 °C |
| *CC(O)COc1ccc(C(C)(C)c2ccc(OCC(O)COc3ccc(NC(=O)CCCCC(=O)Nc4ccc(O*)cc4)cc3)cc2)cc1 (repeat unit) | 112.00 °C |
| *Oc1c(C)c(C)c(Oc2ccc(NC(=O)c3ccc(C(=O)Nc4ccc(*)cc4)cc3)cc2)c(C)c1C (repeat unit) | 310.00 °C |
| *CCCCCC(=O)Oc1ccc2ccc(OC(=O)CCCCCn3c(=O)c4cc5c(=O)n(*)c(=O)c5cc4c3=O)cc2c1 (repeat unit) | 98.00 °C |
| *C(=O)c1ccc2c(c1)C(=O)N(c1ccc(-c3ccc(Oc4ccc(C5(C)CC(C)(C)c6ccc(Oc7ccc(-c8ccc(N9C(=O)c%10ccc(*)cc%10C9=O)cc8)cc7C(F)(F)F)cc65)cc4)c(C(F)(F)F)c3)cc1)C2=O (repeat unit) | 252.00 °C |

Now for a further molecule.
Report glass transition temperature for *N=P(Cl)(N=P(Cl)(/N=S(/*)Oc1ccccc1-c1ccccc1)Oc1ccccc1-c1ccccc1)Oc1ccccc1-c1ccccc1 (repeat unit) please. 79.00 °C

---

EXPERIMENTAL READOUT: glass transition temperature (°C)
Give the quantity in °C, number only.

Answered examples (3):
| COMPOUND | glass transition temperature (°C) |
| --- | --- |
| *c1ccc2c(c1)C(=O)N(c1ccc(Oc3c(F)c(F)c(-c4c(F)c(F)c(Oc5ccc(N6C(=O)c7ccc(C(*)(C(F)(F)F)C(F)(F)F)cc7C6=O)cc5)c(F)c4F)c(F)c3F)cc1)C2=O (repeat unit) | 271.20 |
| *Oc1cccc(C(=O)c2ccc(Oc3cccc4c3C(=O)N(c3ccc(Oc5ccc(N6C(=O)c7cccc(*)c7C6=O)cc5)cc3)C4=O)cc2)c1 (repeat unit) | 252.00 |
| *Oc1cccc(C(C)(C)c2ccc(Oc3cccc4c3C(=O)N(c3ccc(Oc5ccc(N6C(=O)c7cccc(*)c7C6=O)cc5)cc3)C4=O)cc2)c1 (repeat unit) | 235.00 |

Report glass transition temperature for *c1ccc2c(c1)C(=O)N(c1ccc(-c3ccc(N4C(=O)c5ccc(C(*)(C(F)(F)F)C(F)(F)F)cc5C4=O)cc3-c3cc(C(F)(F)F)cc(C(F)(F)F)c3)c(-c3cc(C(F)(F)F)cc(C(F)(F)F)c3)c1)C2=O (repeat unit) please. 263.00

---

// assign fulfilled if glass transition temperature falls strictly below 50 °C, else not fulfilled (ties count as not fulfilled)

| COMPOUND | LABEL CLASS |
| --- | --- |
| *CC(F)(F)CC(*)(C(F)(F)F)C(F)(F)F (repeat unit) | not fulfilled |

# TODO verify glass transition temperature < 50 °C strictly for this compound: *CCCCCCCOc1ccc(CCc2ccc(O*)cc2C)cc1 (repeat unit) fulfilled

# TODO verify glass transition temperature < 50 °C strictly for this compound: *Oc1ccc(C(C)(C)c2ccc(OC(=O)OCC3CCC(COC(*)=O)CC3)cc2)cc1 (repeat unit) not fulfilled

# TODO verify glass transition temperature < 50 °C strictly for this compound: *C(F)(F)C(=O)NCCCCCCNS(*)(=O)=O (repeat unit) not fulfilled

# TODO verify glass transition temperature < 50 °C strictly for this compound: *CC(O)COc1ccc(C(C)(C)c2ccc(OCC(O)COc3ccc(NC(=O)CCCC(=O)Nc4ccc(O*)cc4)cc3)cc2)cc1 (repeat unit) not fulfilled

# TODO verify glass transition temperature < 50 °C strictly for this compound: *Oc1ccc(S(=O)(=O)c2ccc(Oc3ccc(C4(c5ccc(*)cc5)CCCCCC4)cc3)cc2)cc1 (repeat unit) not fulfilled

# TODO verify glass transition temperature < 50 °C strictly for this compound: *CO* (repeat unit) fulfilled

# TODO verify glass transition temperature < 50 °C strictly for this compound: *c1ccc(Oc2ccc(C(=O)c3cccc(C(=O)c4ccc(Oc5ccc(-c6nc(-c7ccc(-c8nc(*)c(-c9ccccc9)[nH]8)cc7)[nH]c6-c6ccccc6)cc5)cc4)c3)cc2)cc1 (repeat unit) not fulfilled

# TODO verify glass transition temperature < 50 °C strictly for this compound: *CC(*)(C)C(=O)OCCCCCCCCCCCCCCC(=O)NC1OC(COC(C)=O)C(OC2OC(COC(C)=O)C(OC(C)=O)C(OC(C)=O)C2OC(C)=O)C(OC(C)=O)C1OC(C)=O (repeat unit) not fulfilled

---

glass transition temperature reference
Give the quantity in °C, number only.

| COMPOUND | EXPERIMENTAL READOUT | REPORTED VALUE |
| --- | --- | --- |
| *Oc1ccc(C(C)(C)c2ccc(OC(=O)NC(=O)c3cc(C(=O)NC(*)=O)cc(C(C)(C)C)c3)cc2)cc1 (repeat unit) | glass transition temperature | 123.50 |
| *CCOP(=O)(/N=N/c1ccc(Oc2ccc(/N=N/P(=O)(O*)OCC)cc2)cc1)OCC (repeat unit) | glass transition temperature | 22.00 |
| *CC(*)OCCOCCOCCOC (repeat unit) | glass transition temperature | -76.00 |
| *c1cccc(P(=O)(c2ccccc2)c2cccc(-n3c(=O)c4cc5c(=O)n(*)c(=O)c5cc4c3=O)c2)c1 (repeat unit) | glass transition temperature | 331.00 |
| *c1ccc(Oc2ccc(Oc3ccc(P(=O)(c4ccccc4)c4ccc(Oc5ccc(Oc6ccc(-c7nc8ccc(-c9ccc%10nc(*)oc%10c9)cc8o7)cc6)cc5)cc4)cc3)cc2)cc1 (repeat unit) | glass transition temperature | 223.00 |

Report glass transition temperature for *CC(*)(CC(=O)OC1CCCCC1)C(=O)OC1CCCCC1 (repeat unit) please. 142.00

Report glass transition temperature for *Nc1ccc(NC(=O)c2ccc(C(c3ccc(C(*)=O)c(C(=O)OCC)c3)(C(F)(F)F)C(F)(F)F)cc2C(=O)OCC)cc1 (repeat unit) please. 270.00

Report glass transition temperature for *c1ccc(Oc2ccc(-c3cnc4cc(-c5ccc6nc(*)cnc6c5)ccc4n3)cc2)cc1 (repeat unit) please. 334.00

Report glass transition temperature for *Oc1ccc(S(=O)(=O)c2ccc3cc(S(=O)(=O)c4ccc(Oc5c(C)cc(-c6cc(C)c(*)c(C)c6C)c(C)c5C)cc4)ccc3c2)cc1 (repeat unit) please. 300.00

Report glass transition temperature for *c1ccc(Oc2ccc(C(=O)c3ccc(Oc4ccc(-c5c6c(c(*)c7ccccc57)C(=O)N(c5ccc(C(F)(F)F)cc5)C6=O)cc4)cc3)cc2)cc1 (repeat unit) please. 260.00

Report glass transition temperature for *O[Si](*)(C)CCc1ccc(O)cc1 (repeat unit) please. 39.00

Report glass transition temperature for *CCCCCNC(=O)C(OC)C(OC)C(=O)N* (repeat unit) please. 113.00

Report glass transition temperature for *CC(*)c1ccc([Si](C)(O[Si](C)(C)C)O[Si](C)(C)C)cc1 (repeat unit) please. 54.00

Report glass transition temperature for *CC(C)(C)COC(=O)CCC(=O)O* (repeat unit) please. -18.00

Report glass transition temperature for *c1ccc2c(c1)C(=O)N(c1ccc(Sc3ccc(Oc4ccc(Sc5ccc(N6C(=O)c7ccc(C(*)(C(F)(F)F)C(F)(F)F)cc7C6=O)cc5)cc4)cc3)cc1)C2=O (repeat unit) please. 242.00
